Experimental system: HIV-1 APV-17 Env (clade B pseudovirus) (HIV-1)
Method: cell-based or functional assay
Measurement name: IC50 (µg/mL), pseudovirus neutralization

Read off the recorded IC50 (µg/mL), pseudovirus neutralization for 1443_C16 (PG16) (TCN-116) (antibody, V domains shown) VH: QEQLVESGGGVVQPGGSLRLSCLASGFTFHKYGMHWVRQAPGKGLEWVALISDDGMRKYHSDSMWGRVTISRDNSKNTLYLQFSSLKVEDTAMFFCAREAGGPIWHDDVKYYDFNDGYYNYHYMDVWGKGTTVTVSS VL: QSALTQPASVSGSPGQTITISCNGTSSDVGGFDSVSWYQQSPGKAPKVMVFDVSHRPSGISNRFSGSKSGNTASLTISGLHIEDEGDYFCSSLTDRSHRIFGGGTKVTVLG
> 50 µg/mL

Reference for the values: patent US20240132578A1
